Measured X144 S.I., listed per entry.
Tested on: PBMC from normal individuals
measurement.description: In vitro T cell proliferative responses of human PBMC ([3H]thymidine incorporation)
Assay type: cell-based
measurement.context: 3rd Stimulation, donor X144
Hey, just send me the number, nothing else.

Consider the reported X144 S.I. for these compounds:
test.smiles: CC(C)C[C@H](NC(=O)[C@@H](NC(=O)[C@H](Cc1c[nH]c2ccccc12)NC(=O)[C@H](C)NC(=O)[C@H](C)NC(=O)[C@@H](NC(=O)[C@H](CC1CCCCC1)NC(=O)[C@H](CCCCN)NC(=O)[C@@H](C)N)C(C)C)[C@@H](C)O)C(=O)N[C@@H](CCCCN)C(=O)N[C@@H](C)C(=O)N[C@@H](C)C(=O)N[C@H](C)C(N)=O
meas.value: 14
//
test.smiles: CC(C)C[C@H](NC(=O)[C@@H](NC(=O)[C@H](Cc1c[nH]cn1)NC(=O)[C@H](C)NC(=O)[C@H](C)NC(=O)[C@@H](NC(=O)[C@H](CC1CCCCC1)NC(=O)[C@H](CCCCN)NC(=O)[C@@H](C)N)C(C)C)[C@@H](C)O)C(=O)N[C@@H](CCCCN)C(=O)N[C@@H](C)C(=O)N[C@@H](C)C(=O)N[C@H](C)C(N)=O
meas.value: 2.4

Could you now look at the following compound, please?
Param readout= X144 S.I.; system= PBMC from normal individuals; entry= CC(C)C[C@H](NC(=O)[C@@H](NC(=O)[C@H](Cc1c[nH]c2ccccc12)NC(=O)[C@H](C)NC(=O)[C@H](C)NC(=O)[C@@H](NC(=O)[C@H](CC1CCCCC1)NC(=O)[C@H](CCCCN)NC(=O)[C@H](C)N)C(C)C)[C@@H](C)O)C(=O)N[C@@H](CCCCN)C(=O)N[C@@H](C)C(=O)N[C@@H](C)C(=O)N[C@@H](C)C(N)=O ; returns value.
4.1
